test system: S. aureus Newman; assay: Bliss interaction score (quartile over a dose matrix) (fitness difference); higher = more antagonism (negative = synergy);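 also: first quartile when negative (synergy) and third quartile when positive (antagonism)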
Please provide measured Bliss interaction score for the entries that follow.
One number for each entry.

// below: answered compounds
- COMPOUND: "CC(=O)NC[C@H]1CN(c2ccc(N3CCOCC3)c(F)c2)C(=O)O1 [Linezolid] + Cc1ncc([N+](=O)[O-])n1CCO [Metronidazole]"
  TEST_TARGET: "S. aureus Newman"
  Bliss interaction score: 0.0844
- COMPOUND: "CO[C@@H]1[C@@H](OC(N)=O)[C@@H](O)[C@H](Oc2ccc3c(O)c(NC(=O)c4ccc(O)c(CC=C(C)C)c4)c(=O)oc3c2C)OC1(C)C [Novobiocin] + CO[C@H]1/C=C/O[C@@]2(C)Oc3c(C)c(O)c4c(O)c(c(/C=N/N5CCN(C)CC5)c(O)c4c3C2=O)NC(=O)/C(C)=C\\C=C\\[C@H](C)[C@H](O)[C@@H](C)[C@@H](O)[C@@H](C)[C@H](OC(C)=O)[C@@H]1C [Rifampicin]"
  TEST_TARGET: "S. aureus Newman"
  Bliss interaction score: 0.0819
- COMPOUND: "CC(=O)NC[C@H]1CN(c2ccc(N3CCOCC3)c(F)c2)C(=O)O1 [Linezolid] + CC1(C)S[C@@H]2[C@H](NC(=O)Cc3ccccc3)C(=O)N2[C@H]1C(=O)O [PenicillinG]"
  TEST_TARGET: "S. aureus Newman"
  Bliss interaction score: -0.0481
- COMPOUND: "CC[C@H]1OC(=O)[C@H](C)[C@@H](O[C@H]2C[C@@](C)(OC)[C@@H](O)[C@H](C)O2)[C@H](C)[C@@H](O[C@@H]2O[C@H](C)C[C@H](N(C)C)[C@H]2O)[C@](C)(O)C[C@@H](C)C(=O)[C@H](C)[C@@H](O)[C@]1(C)O [Erythromycin] + COc1c(N2C[C@@H]3CCCN[C@@H]3C2)c(F)cc2c(=O)c(C(=O)O)cn(C3CC3)c12 [Moxifloxacin]"
  TEST_TARGET: "S. aureus Newman"
  Bliss interaction score: 0.0486
- COMPOUND: "CC[C@H]1OC(=O)[C@H](C)[C@@H](O[C@H]2C[C@@](C)(OC)[C@@H](O)[C@H](C)O2)[C@H](C)[C@@H](O[C@@H]2O[C@H](C)C[C@H](N(C)C)[C@H]2O)[C@](C)(O)C[C@@H](C)C(=O)[C@H](C)[C@@H](O)[C@]1(C)O [Erythromycin] + CN(C)c1cc(NC(=O)CNC(C)(C)C)c(O)c2c1C[C@H]1C[C@H]3[C@H](N(C)C)C(O)=C(C(N)=O)C(=O)[C@@]3(O)C(O)=C1C2=O [Tigecycline]"
  TEST_TARGET: "S. aureus Newman"
  Bliss interaction score: -0.0253

Let us move to another entry and its Bliss interaction score.
Query string: Please supply the value of reported Bliss interaction score for the item CO[C@@H]1[C@@H](OC(N)=O)[C@@H](O)[C@H](Oc2ccc3c(O)c(NC(=O)c4ccc(O)c(CC=C(C)C)c4)c(=O)oc3c2C)OC1(C)C [Novobiocin] + CN[C@H](CC(C)C)C(=O)N[C@H]1C(=O)N[C@@H](CC(N)=O)C(=O)N[C@H]2C(=O)N[C@H]3C(=O)N[C@H](C(=O)N[C@H](C(=O)O)c4cc(O)cc(O)c4-c4cc3ccc4O)[C@H](O)c3ccc(c(Cl)c3)Oc3cc2cc(c3O[C@@H]2O[C@H](CO)[C@@H](O)[C@H](O)[C@H]2O[C@H]2C[C@](C)(N)[C@H](O)[C@H](C)O2)Oc2ccc(cc2Cl)[C@H]1O [Vancomycin]
Result string: -0.0447
